The reader will find reported GI50 values listed item by item below.
# Test system: SK-OV-3
# assay-overview: Antiproliferative activity against human SKOV3 cells after 48 hrs by SRB assay
# Assay type: functional
# condition-label: SK-OV-3, 48 h, read-out: GI50
All answers are understood in nM, so give the number only.

Need GI50 of "C=CCn1c2c3cc(OC)c(O)cc3ccc2c2c(=O)oc3cc(O)c(OC)cc3c21" , thanks.
29

Request the reported GI50 associated with "COc1cc(-c2c3c4cc(OC)c(O)cc4oc(=O)c3n3ccc4cc(O)c(OC)cc4c23)ccc1O"
38

# input compound: "COc1cc2c(cc1O)oc(=O)c1c2c(CN(C)C)c2c3cc(OC)c(O)cc3ccn21" ; wanted: its GI50
1600

Given the compound "COc1cc2c(ccc3c4c(=O)oc5cc(O)c(OC)cc5c4n(CCN(C)C)c23)cc1O" , what is its reported GI50?
26

Recorded GI50 for "COc1cc2c(cc1O)oc(=O)c1c2c(Br)c2c3cc(OC)c(O)cc3ccn21" , please?
500
